# study-target: human TLR4 (Homo sapiens, UniProt O00206+Q9Y6Y9)
# Sequence (O00206 24-839): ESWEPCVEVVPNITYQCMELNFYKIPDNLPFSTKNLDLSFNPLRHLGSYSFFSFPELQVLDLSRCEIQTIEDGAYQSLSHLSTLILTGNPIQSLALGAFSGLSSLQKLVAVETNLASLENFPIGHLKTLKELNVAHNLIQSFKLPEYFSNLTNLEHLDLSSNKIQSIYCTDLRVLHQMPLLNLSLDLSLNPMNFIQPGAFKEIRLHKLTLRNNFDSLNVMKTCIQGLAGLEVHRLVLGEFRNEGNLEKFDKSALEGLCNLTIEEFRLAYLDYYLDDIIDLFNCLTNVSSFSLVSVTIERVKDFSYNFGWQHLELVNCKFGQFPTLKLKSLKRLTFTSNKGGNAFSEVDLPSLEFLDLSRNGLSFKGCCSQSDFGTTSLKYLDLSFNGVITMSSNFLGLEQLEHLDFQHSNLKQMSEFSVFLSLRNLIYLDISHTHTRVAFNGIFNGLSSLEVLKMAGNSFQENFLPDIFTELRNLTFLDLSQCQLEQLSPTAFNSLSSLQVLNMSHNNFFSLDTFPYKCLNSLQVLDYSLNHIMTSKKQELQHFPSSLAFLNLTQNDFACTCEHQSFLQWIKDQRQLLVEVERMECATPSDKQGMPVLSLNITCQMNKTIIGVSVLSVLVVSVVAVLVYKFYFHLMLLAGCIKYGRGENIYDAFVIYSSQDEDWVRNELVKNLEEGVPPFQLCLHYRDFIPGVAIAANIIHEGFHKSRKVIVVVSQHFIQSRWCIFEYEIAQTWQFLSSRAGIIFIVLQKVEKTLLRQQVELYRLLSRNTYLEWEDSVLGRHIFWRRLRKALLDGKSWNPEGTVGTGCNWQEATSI
# Sequence (Q9Y6Y9 17-160 limits assumed): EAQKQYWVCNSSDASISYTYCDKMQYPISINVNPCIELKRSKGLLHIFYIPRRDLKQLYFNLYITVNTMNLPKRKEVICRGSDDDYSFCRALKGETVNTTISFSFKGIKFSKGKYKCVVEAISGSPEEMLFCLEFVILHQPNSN
# assay-explanation: Human TLR4 reporter gene assay (Test 1)
# condition-summary: HEK-Blue hTLR4 cell line, SEAP reporter, 37° C. 16-20 hours, 0.1% DMSO; concentration giving half of maximal SEAP level induced with LPS
readout-kind: EC50 (nM)
Response body: numeric value in nM, unit text excluded.

Query: Lab note: need EC50 with human TLR4 (Homo sapiens, UniProt O00206+Q9Y6Y9) for entry CCCCCCCCCCC[C@H](CC(=O)NC1C(OC[C@@H](NC(=O)C[C@@H](CCCCCCCCCCC)OC(=O)CCCCCCCCC)C(=O)O)OC(CO)C(O)C1OC(=O)C[C@@H](CCCCCCCCCCC)OC(=O)CCCCCCCCc1ccccc1)OC(=O)CCCCCCCCC (stereo partly shown) , please look it up.
Result: 43.5

====

# study-target: mouse TLR4 (Mus musculus, UniProt Q9JHF9+Q9QUK6)
# Sequence (Q9QUK6 26-835): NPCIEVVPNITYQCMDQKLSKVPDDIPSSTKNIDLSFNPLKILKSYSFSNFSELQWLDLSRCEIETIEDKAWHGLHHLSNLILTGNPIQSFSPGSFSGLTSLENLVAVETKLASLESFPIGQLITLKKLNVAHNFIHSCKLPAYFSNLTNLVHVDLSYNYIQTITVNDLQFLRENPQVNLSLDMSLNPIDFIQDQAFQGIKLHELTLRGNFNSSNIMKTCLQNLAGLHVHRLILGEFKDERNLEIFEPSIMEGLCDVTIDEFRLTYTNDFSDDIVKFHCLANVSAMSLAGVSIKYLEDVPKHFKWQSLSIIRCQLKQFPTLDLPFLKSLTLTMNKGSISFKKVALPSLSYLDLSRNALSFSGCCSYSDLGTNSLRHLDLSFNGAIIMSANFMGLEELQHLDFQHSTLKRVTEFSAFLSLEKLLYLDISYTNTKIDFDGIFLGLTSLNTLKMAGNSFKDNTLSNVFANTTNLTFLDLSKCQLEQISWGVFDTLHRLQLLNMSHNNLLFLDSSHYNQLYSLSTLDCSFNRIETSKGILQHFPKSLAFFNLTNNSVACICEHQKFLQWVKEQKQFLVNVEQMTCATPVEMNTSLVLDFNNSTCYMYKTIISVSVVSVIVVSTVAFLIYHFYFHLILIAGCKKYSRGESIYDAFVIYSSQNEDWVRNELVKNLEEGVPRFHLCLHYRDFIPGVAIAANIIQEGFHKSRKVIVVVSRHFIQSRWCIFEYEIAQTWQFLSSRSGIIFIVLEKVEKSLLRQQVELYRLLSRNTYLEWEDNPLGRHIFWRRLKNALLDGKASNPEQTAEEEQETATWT
# Sequence (Q9JHF9 19-160): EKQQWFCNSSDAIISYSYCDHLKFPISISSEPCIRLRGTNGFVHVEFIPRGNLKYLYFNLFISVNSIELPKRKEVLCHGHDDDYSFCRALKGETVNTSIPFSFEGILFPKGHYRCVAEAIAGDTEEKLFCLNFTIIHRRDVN
# assay-explanation: Mouse TLR4 reporter gene assay (Test 2)
# condition-summary: HEK-Blue mTLR4 cell line, SEAP reporter, 37° C. 16-20 hours, 0.1% DMSO; concentration giving half of maximal SEAP level induced with LPS
readout-kind: EC50 (nM)
Response body: numeric value in nM, unit text excluded.

Query: Give its EC50 value. Item: CCCCCCCCCCC[C@H](CC(=O)NC(COC1OC(CO)C(OP(=O)(O)O)C(OC(=O)C[C@@H](CCCCCCCCCCC)OC(=O)CCCCCCCCC)C1NC(=O)C[C@@H](CCCCCCCCCCC)OC(=O)CCCCCCCCC)C(=O)O)OC(=O)CCCCCCCCc1ccccc1 (stereo partly drawn) [compound 14]
Result: 14.2

Query: Give its EC50 value. Item: CCCCCCCCCCC[C@H](CC(=O)NC1C(OC[C@@H](NC(=O)C[C@@H](CCCCCCCCCCC)OC(=O)CCCCCCCCC)C(=O)O)OC(CO)C(O)C1OC(=O)C[C@@H](CCCCCCCCCCC)OC(=O)CCCCCCCCc1ccccc1)OC(=O)CCCCCCCCC (stereo partly drawn) [Example 1]
Result: 14.3

Query: Give its EC50 value. Item: CCCCCCCCCCC[C@H](CC(=O)NC(COC1OC(CO)C(OP(=O)(O)O)C(OC(=O)C[C@@H](CCCCCCCCCCC)OC(=O)CCCCCCCCC)C1NC(=O)C[C@@H](CCCCCCCCCCC)OC(=O)CCCCCCCCC)C(=O)O)OC(=O)CCCCCCCCc1ccccc1 (stereo partly drawn) [compound 13]
Result: 13.5

====

# study-target: mouse TLR4 (Mus musculus, UniProt Q9JHF9+Q9QUK6)
# assay-explanation: Mouse TLR4 reporter gene assay (Test 2)
# condition-summary: HEK-Blue mTLR4 cell line, SEAP reporter, 37° C. 16-20 hours, 0.1% DMSO; concentration giving half of maximal SEAP level induced with LPS
readout-kind: pEC50
Note on units: pEC50 is unitless, being -log10 of a concentration expressed in mol/L.

Query: Give its pEC50 value. Item: CCCCCCCCCCC[C@H](CC(=O)NC(COC1OC(CO)C(O)C(OC(=O)C[C@@H](CCCCCCCCCCC)OC(=O)CCCCCCCCC)C1NC(=O)C[C@@H](CCCCCCCCCCC)OC(=O)CCCCCCCCC)C(=O)O)OC(=O)CCCCCCCCc1ccccc1 (stereo partly shown) [Example 5]
Result: 7.30

Query: Give its pEC50 value. Item: CCCCCCCCCCC[C@H](CC(=O)NC(COC1OC(CO)C(OP(=O)(O)O)C(OC(=O)C[C@@H](CCCCCCCCCCC)OC(=O)CCCCCCCCc2ccccc2)C1NC(=O)C[C@@H](CCCCCCCCCCC)OC(=O)CCCCCCCCC)C(=O)O)OC(=O)CCCCCCCCC (stereo partly shown) [Reference example 10]
Result: 7.89

Query: Give its pEC50 value. Item: CCCCCCCCCCC[C@H](CC(=O)NC(COC1OC(CO)C(OP(=O)(O)O)C(OC(=O)C[C@@H](CCCCCCCCCCC)OC(=O)CCCCCCCCC)C1NC(=O)C[C@@H](CCCCCCCCCCC)OC(=O)CCCCCCCCc1ccccc1)C(=O)O)OC(=O)CCCCCCCCC (single isomer, unassigned) [compound 11]
Result: 7.30

Query: Give its pEC50 value. Item: CCCCCCCCCCC[C@H](CC(=O)NC1C(OC[C@@H](NC(=O)C[C@@H](CCCCCCCCCCC)OC(=O)CCCCCCCCC)C(=O)O)OC(CO)C(OP(=O)(O)O)C1OC(=O)C[C@@H](CCCCCCCCCCC)OC(=O)CCCCCCCCc1ccccc1)OC(=O)CCCCCCCCC (stereo partly shown) [Reference example 9, reference compound]
Result: 7.55

Query: Give its pEC50 value. Item: CCCCCCCCCCC[C@H](CC(=O)NC1C(OC[C@@H](NC(=O)C[C@@H](CCCCCCCCCCC)OC(=O)CCCCCCCCC)C(=O)O)OC(CO)C(O)C1OC(=O)C[C@@H](CCCCCCCCCCC)OC(=O)CCCCCCCCC)OC(=O)CCCCCCCCc1ccccc1 (stereo partly shown) [Example 3]
Result: 6.86

Query: Give its pEC50 value. Item: CCCCCCCCCCC[C@H](CC(=O)NC1C(OC[C@H](NC(=O)C[C@@H](CCCCCCCCCCC)OC(=O)CCCCCCCCC)C(=O)O)OC(CO)C(O)C1OC(=O)C[C@@H](CCCCCCCCCCC)OC(=O)CCCCCCCCc1ccccc1)OC(=O)CCCCCCCCC (stereo partly shown) [Example 2]
Result: 7.85

src = patent US20230287027A1
